- System: Hela cell line
- protocol.details: Cytotoxicity MTS assay, Hela cell line;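 note: blank control wells received 0.025% DMSO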
- Type: cell-based
- condition: Hela cell line, MTS, 10μM, second assay
measurement.type: OD490 value, Well 3
Form: value (number only, do not type unit).

Reported OD490 value, Well 3 ( CCOC(=O)c1c(C2NC(=O)NC(C)=C2C(=O)Nc2ccccc2)[nH]c(C(=O)OC)c1C (centres unmarked) ) = 2.4512

Recorded result, CCOC(=O)c1[nH]c(C2NC(=O)NC(C)=C2C(=O)Nc2ccccc2OC)c(C(=O)OC)c1C (centres unmarked) , OD490 value, Well 3: 2.5503

Memo: CCOC(=O)c1[nH]c(C2NC(=O)NC(C)=C2C(=O)Nc2ccccc2C)c(C(=O)OC)c1C (centres unmarked) , reported OD490 value, Well 3: 2.8336

Quick note, OD490 value, Well 3 for CCOC(=O)c1c(C2NC(=O)NC(C)=C2C(=O)Nc2ccccc2C)[nH]c(C(=O)OC)c1C (centres unmarked) [D2] landed at 2.7401

OD490 value, Well 3 reported for this compound CCOC(=O)c1[nH]c(C2NC(=O)NC(C)=C2C(=O)Nc2ccc(Cl)cc2)c(C(=O)OCC)c1C (centres unmarked) : 2.5521

Quick note, OD490 value, Well 3 for CCOC(=O)c1[nH]c(C2NC(=S)NC(C)=C2C(=O)OC)c(C(=O)OCC)c1C (centres unmarked) landed at 2.5698

The reported OD490 value, Well 3 of the compound CCOC(=O)c1c(C2NC(=O)NC(C)=C2C(=O)Nc2ccccc2OC)[nH]c(C(=O)OC)c1C (centres unmarked) [D1] was 2.2169

OD490 value, Well 3 measured on CCOc1ccccc1C1NC(=S)NC(C)=C1C(=O)Nc1ccc(Cl)cc1 (centres unmarked) = 2.1987

---

- System: Hela cell line
- protocol.details: Cytotoxicity MTS assay, Hela cell line;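 note: blank control wells received 0.025% DMSO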
- Type: cell-based
- condition: Hela cell line, MTS, 25μM, second assay
Exercise: state measured OD490 value, Well 1 for each of the compounds provided.
Please state the value as a number alone, without comment.

// OD490 value, Well 1 value for CCOC(=O)c1[nH]c(C2NC(=O)NC(C)=C2C(=O)Nc2ccc(Cl)cc2)c(C(=O)OCC)c1C (centres unmarked) : 2.5901

Briefly, OD490 value, Well 1 measured for CCOC(=O)c1[nH]c(C2NC(=S)NC(C)=C2C(=O)OC)c(C(=O)OCC)c1C (centres unmarked) : 2.5698

Quick note, OD490 value, Well 1 for CCOC(=O)c1c(C2NC(=O)NC(C)=C2C(=O)Nc2ccccc2OC)[nH]c(C(=O)OC)c1C (centres unmarked) [D1] landed at 2.2361

So for CCOc1ccccc1C1NC(=S)NC(C)=C1C(=O)Nc1ccc(Cl)cc1 (centres unmarked) , the logged OD490 value, Well 1 turned out to be 1.7589

Sure, the documented OD490 value, Well 1 for CCOC(=O)c1c(C2NC(=O)NC(C)=C2C(=O)Nc2ccccc2C)[nH]c(C(=O)OC)c1C (centres unmarked) [D2] is 2.8835

OD490 value, Well 1 recorded for this compound, CCOC(=O)c1[nH]c(C2NC(=O)NC(C)=C2C(=O)Nc2ccccc2OC)c(C(=O)OC)c1C (centres unmarked) , is 2.5301

GET /value?item= CCOC(=O)c1[nH]c(C2NC(=O)NC(C)=C2C(=O)Nc2ccccc2C)c(C(=O)OC)c1C (centres unmarked) &field=OD490 value, Well 1 returns 2.6354

Consider CCOC(=O)c1c(C2NC(=O)NC(C)=C2C(=O)Nc2ccccc2)[nH]c(C(=O)OC)c1C (centres unmarked) . Its measured OD490 value, Well 1 is 2.0147
